System: NCI/ADR-RES ovarian
Assay: NCI tumour cell line growth inhibition, 48 h
observation type: TGI

{"compound": "O=C1C=C(NCCc2cc(Cl)c(O)c(Cl)c2)C(=O)c2[nH]cnc21", "TGI": "> 100 µM"}

Turning now to a further compound:
Task item: Recorded TGI of O=c1[nH]cnc2c1ncn2C1SC(CO)C(O)C1O (configuration not stated) , please.
Reply: > 100 µM

----------
# key: entry, value: TGI
Test system: CCRF-CEM leukemia
Test: NCI tumour cell line growth inhibition, 48 h

Task item: Recall the recorded TGI for `COc1ccc(NC(=O)CC(=O)n2nc(-c3ccccc3)c(N=Nc3ccccc3C)c2-c2ccccc2)cc1` with CCRF-CEM leukemia and state it.
Reply: > 100 µM

Task item: Item: Cc1cc(S(=O)(=O)Nc2nc(N)nc(N(C)C)n2)c(SC(C(=O)O)c2ccccc2)cc1Cl (centres undefined)
Reply: > 10 µM

Task item: Request: Cc1ccc(C2SC(N)=Nc3c2c(C)nn3C(=O)c2ccc(Cl)cc2)cc1 (centres undefined)
Reply: > 10 µM

Task item: Same lookup for O=C(O)C1CCCCC1C(=O)Nc1nc2ccccc2[nH]1 (centres undefined) , please.
Reply: > 100 µM

Task item: Ok, now `CS(=O)(=O)c1ccc(-c2[nH]c3ccc(F)cc3c2/C=N/NC(N)=S)cc1`
Reply: 27.2 µM

Task item: What do you have for CC1OC(n2cc(I)c(=O)[nH]c2=O)C=CC1=O (centres undefined) ?
Reply: 7.74 µM

Task item: Thanks! And `CCOC(=O)NN(C(=O)OCC)C(C(=O)c1ccc(Cl)cc1)=C1NCCN1` ?
Reply: > 100 µM

Task item: Similarly, `O=C(Nc1ccc(Cl)cc1F)c1cc(Cl)ccc1O` ?
Reply: > 44.9 µM

Task item: Please answer likewise for COc1cc2c(cc1OC)C1(c3ccccc3)ON=C(c3ccccc3)N1CS2 (centres undefined)
Reply: > 100 µM

Task item: Further, for `Cc1ccc(Cc2nn(C)c(=O)n2-n2cccc2)cc1` ?
Reply: > 100 µM

Task item: Next entry: N#Cc1c(-c2ccccc2)c(C#N)c(=S)n(C2OCC(O)C(O)C2O)c1N (centres undefined)
Reply: > 100 µM

Task item: Next: `O=C1c2ccccc2CCC1(Br)Br`
Reply: 2.01 µM

Task item: Same question, `O=C1NCC2(CCNCC2)N1` this time
Reply: > 100 µM

Task item: Now give it for `CC(=O)[C@]1(C)[C@H](C)O[C@](C)(CO)[C@H]1O[Si](C)(C)c1ccccc1` too.
Reply: > 100 µM

Task item: Thanks! And NCC(=O)NC(CO)C(=O)O (centres undefined) ?
Reply: > 100 µM

Task item: Same thing, different compound: `CNC(=O)OCc1cc2ccncc2c2c1[nH]c1ccccc12`
Reply: > 100 µM

Task item: Also `O=C1C(Cl)=C(Nc2cccc(O)c2)C(=O)N1c1ccc(Cl)cc1Cl` , if possible.
Reply: 46.9 µM

Task item: Another compound to check: COc1ccc(C(=O)C(CC2C(=O)CC(C)(C)C(C(=O)C(=O)Nc3c(C)cccc3C)C2=O)c2ccc(OC)cc2)cc1 (centres undefined)
Reply: > 100 µM

Task item: And the next one, Cc1cn(C2CC(N=[N+]=[N-])C(C(=O)O)O2)c(=O)[nH]c1=O (centres undefined) ?
Reply: > 100 µM
